# subject of test: T1, hLTBP3-proTGFβ1 (human, UniProt Q9NS15 44-1303; P01137 30-390, limits assumed)
# T1 construct: LLC as m1; Same id used for the cell-made complex in reporter assays; also called human LTBP3-proTGFβ1 complex; LTBP3-ProTGFb1
# protocol summary: MSD-SET, hIgG4
property name: Kd (nM)

binder	measured value
Ab24 (antibody, V domains shown) VH: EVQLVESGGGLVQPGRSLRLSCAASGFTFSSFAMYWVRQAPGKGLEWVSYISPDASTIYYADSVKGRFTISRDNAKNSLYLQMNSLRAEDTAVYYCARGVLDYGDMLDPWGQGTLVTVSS VL: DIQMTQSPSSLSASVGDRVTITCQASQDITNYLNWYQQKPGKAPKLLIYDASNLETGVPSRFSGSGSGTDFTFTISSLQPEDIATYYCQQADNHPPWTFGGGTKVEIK	0.021
Ab29 (antibody, V domains shown) VH: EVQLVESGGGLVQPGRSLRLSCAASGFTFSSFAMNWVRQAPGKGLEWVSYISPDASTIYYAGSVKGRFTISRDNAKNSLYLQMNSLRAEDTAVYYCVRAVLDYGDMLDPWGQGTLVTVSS VL: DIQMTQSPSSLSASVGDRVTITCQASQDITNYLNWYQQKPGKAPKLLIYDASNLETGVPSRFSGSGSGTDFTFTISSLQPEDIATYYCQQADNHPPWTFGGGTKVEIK	0.011
Ab26 (antibody, V domains shown) VH: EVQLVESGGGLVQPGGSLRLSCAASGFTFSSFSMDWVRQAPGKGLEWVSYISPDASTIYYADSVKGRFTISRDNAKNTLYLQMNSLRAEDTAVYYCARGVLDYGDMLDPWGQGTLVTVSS VL: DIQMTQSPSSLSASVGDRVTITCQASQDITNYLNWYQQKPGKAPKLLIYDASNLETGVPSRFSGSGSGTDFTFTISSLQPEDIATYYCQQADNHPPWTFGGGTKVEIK	0.023
